Reported remaining at 10 min values for a set of compounds
Experiment: Metabolic stability in human liver microsomes assessed as compound remaining after 10 mins
Format: ADME, Microsome
Settings: liver microsomes, read-out: Stability
Number only, in %; omit the unit.

Illustrative cases are given below, each with its answer.
O=C(O)CC1(c2ccc(F)cc2)C2CC3CC(C2)CC1C3 (centres undefined)    78
O=C(O)CC1(c2ccc(F)cc2)CC2CCC(C2)C1 (centres undefined)    100
O=C(O)CC1(c2ccc(F)cc2)C2CC3CC1CC(F)(C3)C2 (centres undefined)    87

Here's the next entry for you.
Looking up O=C(O)CC1(CCc2ccccc2)C2CC3CC(C2)CC1C3 (centres undefined) , I see its remaining at 10 min listed as 98
